Where these numbers come from: patent US11964978B2

target: R232-STING (Homo sapiens (Human), UniProt Q86WV6, H232R); details: read-out: R232-STING SPA-IC50 Ki; STING residues 155-341, 100 nM 3H-cGAMP; KI from IC50 with Cheng-Prusoff equation
Sequence (Q86WV6 155-341 H232R): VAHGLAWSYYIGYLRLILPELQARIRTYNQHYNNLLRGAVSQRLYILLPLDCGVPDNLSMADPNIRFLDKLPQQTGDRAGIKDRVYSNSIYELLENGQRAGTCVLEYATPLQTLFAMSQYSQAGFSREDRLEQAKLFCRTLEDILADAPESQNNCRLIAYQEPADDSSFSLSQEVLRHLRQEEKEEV
Threshold 10 nM: Ki strictly smaller gives t, otherwise f.

Field: below-cutoff. Rule: recorded Ki strictly less than 10 nM. Subject: Cc1cc(-c2cn(C)c(-c3nc(C(N)=O)cc4c3cnn4C)n2)n(C[C@H]2CCO2)n1 (single isomer, unassigned)
f

Please give the result for "CCn1nc(C)cc1-c1cn(Cc2ccccc2)c(-c2nc(C(N)=O)cc3c2cnn3C)n1" too.
f

Please give the result for "CCn1nc(C)cc1-c1cn(C)c(-c2nc(C(N)=O)cc3c2ccn3C)n1" too.
f

Please give the result for "Cc1cc(-c2cn(C)c(-c3nc(C(N)=O)cc4c3cnn4C)n2)n(CCCOC(F)F)n1" too.
f
